Data origin, for the record: ChEMBL document CHEMBL1151585

- protocol: Toxic dose of compound which causes 50% cytotoxicity towards HIV-1 uninfected JM cells
- Type: toxicity, cell-based, JM1
- protocol conditions: human, read-out: TD50 (the source's name)
Kindly supply the reported CC50 values for the records listed here.
Give bare numbers, in µM.

Example results:
Q: Fill in: CC50 of CCc1ccc(OP(=O)(NC(C)C(=O)OC)OCC2OC(n3cc(C)c(=O)[nH]c3=O)CC2N=[N+]=[N-])cc1 (stereo not given) is ___
Result: 40

Q: Fill in: CC50 of COC(=O)C(Cc1ccccc1)NP(=O)(OCC1OC(n2cc(C)c(=O)[nH]c2=O)CC1N=[N+]=[N-])Oc1ccccc1 (stereo not given) is ___
Result: 100

Q: Fill in: CC50 of COC(=O)[C@H](C)NP(=O)(OC[C@H]1O[C@@H](n2cc(C)c(=O)[nH]c2=O)C[C@@H]1N=[N+]=[N-])Oc1ccccc1 (stereo not given in full) is ___
Result: 500

# ---- query molecule ----
Q: Fill in: CC50 of COC(=O)CNP(=O)(OCC1OC(n2cc(C)c(=O)[nH]c2=O)CC1N=[N+]=[N-])Oc1ccccc1 (stereo not given) is ___
Result: 1000

----------
- protocol: Toxic dose of compound which causes 50% cytotoxicity towards HIV-1 uninfected JM cells
- Format: toxicity, cell-based, JM1
- protocol conditions: human, read-out: TD50 (the source's name)
Kindly supply the reported CC50 values for the records listed here.
One number for each entry, in µM.

Q: Fill in: CC50 of COC(=O)C(C)NP(=O)(OCC1OC(n2cc(C)c(=O)[nH]c2=O)CC1N=[N+]=[N-])Oc1ccc(OC)cc1 (centres undefined) is ___
Result: 100

Please look at the items below and tell me CC50 for each one, in order.
1. COC(=O)C(C)NP(=O)(OCC1OC(n2cc(C)c(=O)[nH]c2=O)CC1N=[N+]=[N-])Oc1ccc([N+](=O)[O-])cc1 (centres undefined)
2. COC(=O)C(CC(C)C)NP(=O)(OCC1OC(n2cc(C)c(=O)[nH]c2=O)CC1N=[N+]=[N-])Oc1ccccc1 (centres undefined)

Result:
1. 300
2. 80
